B1: FEM1A (parent)
chain: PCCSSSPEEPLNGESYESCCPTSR

- Variants of: B1
- EXPERIMENT NOTES: protein stability index of a GFP-peptide fusion (GPS, HEK-293T) (PSI 1-6); higher = more stable;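 further: lentivirally expressed fusions sorted by FACS into six bins by GFP to DsRed ratio, PSI derived from sequencing read proportions per bin multiplied by bin number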
- CONDITION SET: c terminus: a fixed tail appended
Classes are defined on protein stability index with ranges range A = under 3, range B = from 3 up to 4, range C = 4 and over

Into which category would you place S23F ? range B

Into which category would you place P10T ? range B

Into which category would you place P1S ? range B

Into which category would you place C19I ? range B

Into which category would you place P10Q ? range B

Into which category would you place E17D ? range B

Into which category would you place S6F ? range B

Into which category would you place S4G ? range B

Into which category would you place T22Y ? range B

Into which category would you place S5Y ? range A

Into which category would you place P10F ? range B

Into which category would you place P7A ? range B

Into which category would you place P7S ? range B

Into which category would you place N12P ? range A

Into which category would you place E9D ? range B

Into which category would you place C3N ? range C

Into which category would you place S15M ? range B

Into which category would you place S15N ? range B

Into which category would you place S4A ? range B

Into which category would you place S4R ? range B

Into which category would you place E14H ? range B

Into which category would you place E9W ? range A

Into which category would you place P10E ? range B

Into which category would you place N12G ? range B

Into which category would you place E17F ? range B

Into which category would you place S18K ? range B

Into which category would you place E17V ? range A

Into which category would you place S5I ? range B

Into which category would you place Y16W ? range B

Into which category would you place L11V ? range C

Into which category would you place E17R ? range A

Into which category would you place E14W ? range A

Into which category would you place R24Q ? range C

Into which category would you place S23E ? range C

Into which category would you place S15K ? range B

Into which category would you place T22W ? range B

Into which category would you place C3V ? range C

Into which category would you place C2K ? range C

Into which category would you place Y16M ? range B

Into which category would you place R24E ? range C
